experimentalProtocol: chemical genetic growth profiling, strain panel (AID 1159580);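 also: tested at 20 µM; growth read once vehicle control cultures reached saturation at 30 °C; 1 = growth at the plate median or of vehicle wells; lower values mean less growth of the strain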
conditionLabel: S. cerevisiae deletion strains, growth OD, locus YFL029C, strain CAK1, active compounds read low
The whole screen tested about 5,500 compounds, of which about 2,000 (36%) were called active. Inconclusive results (about 18%) are left out. The list shows a part of the results.
Provide the recorded normalized growth for the entries that follow.
Respond numerically, and do not add a unit to the figure.

Query block: Entry O=C(Nc1cc(Cl)cc(Cl)c1)c1cc(Cl)ccc1O needs its normalized growth filled in; supply it.
Result block: 0.923

Query block: Entry CC(C)c1cccc(C(C)C)c1OC(=O)NC(=O)c1c(Cl)cccc1Cl needs its normalized growth filled in; supply it.
Result block: 0.979

Query block: Entry COC(=O)c1cc([N+](=O)[O-])ccc1S(=O)(=O)Cc1ccc(Cl)cc1 needs its normalized growth filled in; supply it.
Result block: 0.974

Query block: Entry O=[N+]([O-])c1ccc(NCc2ccc(Cl)c(Cl)c2)nc1 needs its normalized growth filled in; supply it.
Result block: 0.931

Query block: Entry COc1cc(C2SCCS2)cc(Br)c1OC(=O)NC(=O)c1c(Cl)cccc1Cl needs its normalized growth filled in; supply it.
Result block: 0.974

Query block: Entry O=S(=O)(Nc1c(F)cccc1F)c1ccc(Cl)c(Cl)c1 needs its normalized growth filled in; supply it.
Result block: 0.933

Query block: Entry O=C(Nc1ccc(F)cc1F)c1cc(Cl)ccc1O needs its normalized growth filled in; supply it.
Result block: 0.941

Query block: Entry CCOC(=O)C(O)(c1ccc(NC(=O)c2ccc(Cl)c(Cl)c2)cc1)C(F)(F)F (stereo unspecified) needs its normalized growth filled in; supply it.
Result block: 0.992

Query block: Entry Cn1cc(Br)c(-c2cccc(NS(=O)(=O)c3ccc(Cl)cc3)c2)n1 needs its normalized growth filled in; supply it.
Result block: 0.993

Query block: Entry CCOC(=O)c1cnc(-c2ccccn2)[nH]c1=O needs its normalized growth filled in; supply it.
Result block: 0.932

Query block: Entry COC(=O)c1cccc(NS(=O)(=O)c2ccc(Cl)c(Cl)c2)c1 needs its normalized growth filled in; supply it.
Result block: 0.982
